Target: DrDM15 (zebrafish) (UniProt F1R0U5)
Assay: EMSA
Settings: 5' m7G cap (Vaccinia capping); EMSA: 20 mM Tris-HCl pH 8, 150 mM NaCl, 10% glycerol, 1 mM DTT, 0.5 ug tRNA, 1 ug BSA, pM RNA (95 C, snap cooled), 0.5-1 h on …; native 7% PAGE, 0.5X TBE
recorded-metric: Kd (pM)
API: value field is a number in pM; no unit string.

Sample records with Kd:
CCUCUUUUCCGCUUAUCUCUUUGAGAUAAAUGCAUAUUUUUU [HsRPS6_Stem, capped]    7900
CCUCUUUUCCGUGGCGCCUCGGAGGCGUUCAGCUGCUUCAAG [HsRPS6 42-mer, capped]    10000
CCUUCUCCCCGGCGGUUAGUGCUGAGAGUGCGGAGUGUGUGC [HsPABPC1 42-mer, capped]    97000

Now turn to the next sequence.
Input: Quick check: Kd of CCUUCUCCCCGCUUAUCUCUUUGAGAUAAAUGCAUAUUUUUU [HsPABPC1_Stem, capped] ?
Output: 6900
